target-desc: WEE1 (Homo sapiens, UniProt P30291+Q96SW2)
Construct: C-terminal ePL-tagged (DiscoverX, Fremont, CA) full-length WEE1 expression construct; expressed in transfected cells; host or cells: LentiX-HEK293T (Invitrogen), lentiviral transduction; co-expressing GSPT1-GN (G576N, lacking the first 158 amino acids)
method-notes: WEE1-ePL degradation assay (LentiX-WEE1-ePL-GSPT1-ND cells, InCELL Hunter luminescence, 4 h)
Format: cell-based
experimental-parameters: 293T-LentiX WEE1-ePL cells, read-out: 293T-LentiX WEE1-ePL Degradation 4 hr (EC50)
endpoint-name: DC50 (nM)

Before answering, review these 6 worked examples.
Give the measured DC50 of O=C1CCC(N2Cc3cc(O[C@H]4CCN(Cc5cc(F)c6nc(C7CCOCC7)ccc6c5)C4)ccc3C2=O)C(=O)N1 (stereo partly drawn) .
1.24

Okay, and C[C@@H]1CC(c2ccc3cc(CN4CC[C@H](Oc5ccc6c(c5)CN(C5CCC(=O)NC5=O)C6=O)C4)ccc3n2)CCO1 (stereo partly drawn) ?
10.5

Okay, and COC[C@@H]1CN(Cc2cc(F)c3nc([C@H]4CCOC(C)(C)C4)ccc3c2)C[C@H]1Oc1ccc2c(c1)CN([C@H]1CCC(=O)NC1=O)C2=O ?
1.2

Okay, and O=C1CCC(N2Cc3cc(O[C@H]4CCN(Cc5ccc6nc(C7(O)CCC7)ccc6c5)C4)ccc3C2=O)C(=O)N1 (stereo partly drawn) ?
2.58

Okay, and COCc1ccc2cc(CN3CC[C@H](Oc4ccc5c(c4)CN(C4CCC(=O)NC4=O)C5=O)C3)ncc2c1 (stereo partly drawn) ?
1.42

Okay, and CC1(C)CCN(c2ccc3cc(CN4CC[C@H](Oc5ccc6c(c5)CN(C5CCC(=O)NC5=O)C6=O)C4)ccc3n2)C1=O (stereo partly drawn) ?
7.36

A = Cc1cc(F)c2cc(CN3CC[C@H](Oc4ccc5c(c4)CN(C4CCC(=O)NC4=O)C5=O)C3)ccc2n1 (stereo partly drawn)
B = Cc1cc(CN2CC[C@H](Oc3ccc4c(c3)CN(C3CCC(=O)NC3=O)C4=O)C2)ncc1OCC1CCOCC1 (stereo partly drawn)
# return whichever of A and B has the smaller DC50 // output: label of the selected item
B
(B: 9.71 nM, A: 22.7 nM)

----------
target-desc: WEE1 (Homo sapiens, UniProt P30291+Q96SW2)
Construct: C-terminal ePL-tagged (DiscoverX, Fremont, CA) full-length WEE1 expression construct; expressed in transfected cells; host or cells: LentiX-HEK293T (Invitrogen), lentiviral transduction; co-expressing GSPT1-GN (G576N, lacking the first 158 amino acids)
method-notes: WEE1-ePL degradation assay (LentiX-WEE1-ePL-GSPT1-ND cells, InCELL Hunter luminescence, 4 h)
Assay type: cell-based
experimental-parameters: 293T-LentiX WEE1-ePL cells, lower limit of the fit (0 = luciferase inhibitor, Ymax = DMSO control)
endpoint-name: 293T-LentiX WEE1-ePL Degradation 4 hr (Ymin)

Before answering, review these 2 worked examples.
Give the measured 293T-LentiX WEE1-ePL Degradation 4 hr (Ymin) of COC(C)(C)c1ccc2cc(CN3CC[C@H](Oc4ccc5c(c4)CN(C4CCC(=O)NC4=O)C5=O)C3)ncc2c1 (stereo partly shown) .
32

Okay, and CO[C@H]1C[C@@H](c2ccc3cc(CN4CC[C@H](Oc5ccc6c(c5)CN(C5CCC(=O)NC5=O)C6=O)C4)ccc3n2)C1 (stereo partly shown) [drawing 581] ?
23.8

a = O=C1CCC(N2Cc3cc(O[C@H]4CCN(Cc5ccc6nc([C@H]7CCCOC7)ccc6c5)C4)ccc3C2=O)C(=O)N1 (stereo partly shown)
b = NCc1cccc(COc2cccc(CN3CC[C@H](Oc4ccc5c(c4)CN(C4CCC(=O)NC4=O)C5=O)C3)c2)c1 (stereo partly shown)
Given the listed records, identify the one among a and b with higher 293T-LentiX WEE1-ePL Degradation 4 hr (Ymin). // output: label of the selected item
b
(b: 81.05, a: 32.33)

----------
target-desc: WEE1 (Homo sapiens, UniProt P30291+Q96SW2)
Construct: C-terminal ePL-tagged (DiscoverX, Fremont, CA) full-length WEE1 expression construct; expressed in transfected cells; host or cells: LentiX-HEK293T (Invitrogen), lentiviral transduction; co-expressing GSPT1-GN (G576N, lacking the first 158 amino acids)
method-notes: WEE1-ePL degradation assay (LentiX-WEE1-ePL-GSPT1-ND cells, InCELL Hunter luminescence, 4 h)
Assay type: cell-based
experimental-parameters: 293T-LentiX WEE1-ePL cells, lower limit of the fit (0 = luciferase inhibitor, Ymax = DMSO control)
endpoint-name: 293T-LentiX WEE1-ePL Degradation 4 hr (Ymin)

Before answering, review these 6 worked examples.
Give the measured 293T-LentiX WEE1-ePL Degradation 4 hr (Ymin) of O=C1CCC(N2Cc3cc(O[C@H]4CCN(Cc5ccc6nc(C7(O)CCC7)ccc6c5)C4)ccc3C2=O)C(=O)N1 (stereo partly shown) .
29.5

Okay, and O=C1CC[C@H](N2Cc3cc(O[C@H]4CCN(Cc5ccc6nc(C7CCOCC7)ccc6c5F)C4)ccc3C2=O)C(=O)N1 ?
34.42

Okay, and O=C1CCC(N2Cc3cc(O[C@H]4CCN(Cc5ccc6c(c5)NC(=O)CO6)C4)ccc3C2=O)C(=O)N1 (stereo partly shown) ?
70

Okay, and O=C1CC[C@H](N2Cc3cc(O[C@H]4CCN(Cc5ccc6nc(C7CCOCC7)ncc6c5)C4)ccc3C2=O)C(=O)N1 ?
32.12

Okay, and O=C1CCC(N2Cc3cc(O[C@H]4CCN(Cc5nccc6c5CCCO6)C4)ccc3C2=O)C(=O)N1 (stereo partly shown) ?
36

Okay, and O=C1CCC(N2Cc3cc(O[C@H]4CCN(Cc5cnc6cccc(F)c6c5)C4)ccc3C2=O)C(=O)N1 (stereo partly shown) ?
31.52

a = O=C1CCC(N2Cc3cc(O[C@H]4CCN(Cc5ccc6nc(N7CCC78CCOCC8)ccc6c5)C4)ccc3C2=O)C(=O)N1 (stereo partly shown)
b = Cc1cc(C#N)c2cc(CN3CC[C@H](Oc4ccc5c(c4)CN(C4CCC(=O)NC4=O)C5=O)C3)ccc2n1 (stereo partly shown)
Given the listed records, identify the one among a and b with higher 293T-LentiX WEE1-ePL Degradation 4 hr (Ymin). // output: label of the selected item
b
(b: 66.8, a: 33)

----------
target-desc: WEE1 (Homo sapiens, UniProt P30291+Q96SW2)
Construct: C-terminal ePL-tagged (DiscoverX, Fremont, CA) full-length WEE1 expression construct; expressed in transfected cells; host or cells: LentiX-HEK293T (Invitrogen), lentiviral transduction; co-expressing GSPT1-GN (G576N, lacking the first 158 amino acids)
method-notes: WEE1-ePL degradation assay (LentiX-WEE1-ePL-GSPT1-ND cells, InCELL Hunter luminescence, 4 h)
Assay type: cell-based
experimental-parameters: 293T-LentiX WEE1-ePL cells, read-out: 293T-LentiX WEE1-ePL Degradation 4 hr (EC50)
endpoint-name: DC50 (nM)

Before answering, review these 4 worked examples.
Requested read-out DC50, target or system WEE1 (Homo sapiens, UniProt P30291+Q96SW2), entry COC[C@H]1CC[C@H](c2ccc3cc(CN4CC[C@H](Oc5ccc6c(c5)CN(C5CCC(=O)NC5=O)C6=O)C4)ccc3n2)C1 (stereo partly shown)
6.8

Okay, and N#Cc1ccc2cc(CN3CC[C@H](Oc4ccc5c(c4F)CN(C4CCC(=O)NC4=O)C5=O)C3)ccc2n1 (stereo partly shown) ?
61.5

Okay, and O=C1CC[C@H](N2Cc3cc(O[C@H]4CCN(Cc5ccc6nc(N7CCC7)ncc6c5)C4)ccc3C2=O)C(=O)N1 ?
12.1

Okay, and O=C1CCC(N2Cc3cc(O[C@H]4CCN(Cc5ccnc6c5CCOC6)C4)ccc3C2=O)C(=O)N1 (stereo partly shown) ?
62.7

P = CN1CCc2cc(CN3CC[C@H](Oc4ccc5c(c4)CN(C4CCC(=O)NC4=O)C5=O)C3)cnc2C1 (stereo partly shown)
Q = CNc1cnc2ccc(CN3CC[C@H](Oc4ccc5c(c4)CN(C4CCC(=O)NC4=O)C5=O)C3)cc2c1 (stereo partly shown)
R = O=C1CCC(N2Cc3cc(O[C@H]4CCN(Cc5cc(-c6cccc(C7=CCOCC7)c6)ccn5)C4)ccc3C2=O)C(=O)N1 (stereo partly shown)
I would appreciate it if you could sort these 3 compounds by DC50, starting from the smallest number. In your reply, arrange the labels in the requested order.
R, Q, P

1 = C[C@H]1c2cc(O[C@H]3CCN(Cc4ccc5nc(C6CCOCC6)ccc5c4)C3)ccc2C(=O)N1[C@H]1CCC(=O)NC1=O
2 = O=C1CCC(N2Cc3cc(O[C@@H]4CN(Cc5ccc6nc([C@H]7CCOC7)ccc6c5)C[C@H]4F)ccc3C2=O)C(=O)N1 (stereo partly shown)
# return whichever of 1 and 2 has the smaller DC50 // output: label of the selected item
2

----------
target-desc: WEE1 (Homo sapiens, UniProt P30291+Q96SW2)
Construct: C-terminal ePL-tagged (DiscoverX, Fremont, CA) full-length WEE1 expression construct; expressed in transfected cells; host or cells: LentiX-HEK293T (Invitrogen), lentiviral transduction; co-expressing GSPT1-GN (G576N, lacking the first 158 amino acids)
method-notes: WEE1-ePL degradation assay (LentiX-WEE1-ePL-GSPT1-ND cells, InCELL Hunter luminescence, 4 h)
Type: cell-based
experimental-parameters: 293T-LentiX WEE1-ePL cells, read-out: 293T-LentiX WEE1-ePL Degradation 4 hr (EC50)
endpoint-name: DC50 (nM)

Before answering, review these 5 worked examples.
Give the measured DC50 of O=C1CCC(N2Cc3cc(O[C@H]4CCN(Cc5ccc6nc(N7CCC78CCOCC8)ccc6c5)C4)ccc3C2=O)C(=O)N1 (some centres unmarked) .
6.05

Okay, and C[C@@H]1CC(c2ccc3cc(CN4CC[C@H](Oc5ccc6c(c5)CN(C5CCC(=O)NC5=O)C6=O)C4)ccc3n2)C[C@@H](C)O1 (some centres unmarked) ?
5.2

Okay, and CO[C@@H]1CCC[C@@H](c2ccc3cc(CN4CC[C@H](Oc5ccc6c(c5)CN(C5CCC(=O)NC5=O)C6=O)C4)ccc3n2)C1 (some centres unmarked) ?
2.83

Okay, and O=C1CCC(N2Cc3cc(O[C@H]4CCN(Cc5cc(-c6ccc(C7CCOCC7)cc6)ccn5)C4)ccc3C2=O)C(=O)N1 (some centres unmarked) ?
1.33

Okay, and O=C1CCC(N2Cc3cc(O[C@H]4CCN(Cc5ccc6nc(N7CCOCC7)ncc6c5)C4)ccc3C2=O)C(=O)N1 (some centres unmarked) ?
7.2

1 = C[C@@H]1CN(Cc2cc(F)c3nc([C@@H]4CCOC4)ccc3c2)C[C@H]1Oc1ccc2c(c1)CN([C@H]1CCC(=O)NC1=O)C2=O
2 = O=C1CCC(N2Cc3cc(O[C@H]4CCN(Cc5ccc6nc(N7C[C@H]8C[C@@H]7CO8)ncc6c5)C4)ccc3C2=O)C(=O)N1 (some centres unmarked)
Given the listed records, identify the one among 1 and 2 with higher DC50. // output: label of the selected item
2
(2: 80.1 nM, 1: 1.41 nM)

A = CNC1CCN(c2ccc3cc(CN4CC[C@H](Oc5ccc6c(c5)CN(C5CCC(=O)NC5=O)C6=O)C4)ccc3n2)CC1 (some centres unmarked)
B = O=C1CC[C@H](N2Cc3cc(O[C@H]4CCN(Cc5cc(C6CC6)c6nc(C7CCOCC7)ccc6c5)C4)ccc3C2=O)C(=O)N1
# return whichever of A and B has the smaller DC50 // output: label of the selected item
B
(B: 2.58 nM, A: 64.4 nM)

1 = CN1CC[C@H](c2ccc3cc(CN4CC[C@H](Oc5ccc6c(c5)CN(C5CCC(=O)NC5=O)C6=O)C4)ccc3n2)C1 (some centres unmarked)
2 = O=C1CC[C@H](N2Cc3cc(O[C@H]4CCN(Cc5ccc6nc(N7CCOCC7)ncc6c5F)C4)ccc3C2=O)C(=O)N1
# return whichever of 1 and 2 has the smaller DC50 // output: label of the selected item
2
